All figures here come from patent US20230407243A1.

EKO-35 araC::mexCD Pore data, read-out MIC
Write the numeric value and follow it with the unit.

CCCCCCCCCCCCOS(=O)(=O)[O-].[Na+] [SDS, sodium dodecyl sulphate] ... 125 mg/L

Report MIC for COc1ccc(C[C@H](N)C(=O)N[C@H]2[C@@H](O)[C@H](n3cnc4c(N(C)C)ncnc43)O[C@@H]2CO)cc1 please. 1.56 mg/L

Looking for the measured MIC of CC1(C)S[C@@H]2[C@H](NC(=O)[C@H](N)c3ccccc3)C(=O)N2[C@H]1C(=O)O , can you help? 1.56 mg/L

Request the reported MIC associated with O=C(N[C@H](CO)[C@H](O)c1ccc([N+](=O)[O-])cc1)C(Cl)Cl 0.781 mg/L

###

Listing of entries alongside the reported Minimum inhibitory concentration.
System: EKO-35 araC::macAB Pore
assayProcedure: MIC susceptibility profiling, porinated efflux platform
Assay type: cell-based, Escherichia coli
runConditions: EKO-35 araC::macAB Pore; technical duplicate
Method: For genomic integration of the pore, the fhuA ΔC/Δ4L gene and the adjacent gentamicin resistance cassette were amplified using a high-fidelity polymerase and the fhuA_40_Up/gImS_3680_Low primers (Table 4). […] To a 384-well microtiter plate (Corning, untreated polystyrene), 500 nL of compound was dispensed, in duplicate, and serially titrated 2-fold using an Echo 550 acoustic liquid dispenser (Labcyte Inc.). […] Data was analyzed in both Prism (GraphPad, Version 9.2.0) and Microsoft Excel (Version 16.53). […]
Express your answer in µg/mL, writing the number without its unit.

Some entries whose results are on file:
Cn1cc(Br)c(-c2cccc(NC(=O)Nc3ccc(OC(F)(F)F)cc3)c2)n1 ... 320
N#CC(C#N)=NNc1ccc(-n2ccc(C(F)(F)F)n2)cc1 ... 80
C[n+]1c2cc(N)ccc2cc2ccc(N)cc21.[Cl-] ... 0.195
O=C(Nc1ccc(C(F)(F)F)cc1)Nc1ccc(C(F)(F)F)cc1 ... 320
COC(=O)c1sc(N2CCCC2)c(C#N)c1-c1cccs1 ... 10
N#CC(=NNc1cccc(C(F)(F)F)c1)C(=O)c1ccsc1 ... 320
C=C1CCO[C@]2([C@@H](O)[C@@](C)(O)CO)NC(=O)[C@@]1(O)NC2=O ... 200
O=C(NC(=O)N1CCc2c([nH]c3ccccc23)C1C(F)(F)F)c1ccccc1 (stereo not drawn) ... 5

// below: Minimum inhibitory concentration requested for another compound
Returns the measured Minimum inhibitory concentration for the input compound. Input: Nc1ccccc1SCc1nc(-c2ccc(Cl)cc2)no1 5

###

Tested on: EKO-35 araC::emrAB Pore
assayProcedure: MIC susceptibility profiling, porinated efflux platform
Format: cell-based, Escherichia coli
runConditions: EKO-35 araC::emrAB Pore compared to EKO-35-Pore
quantityMeasured: Fold changes of MICs (fold)
All answers are understood in fold, so give the number only.

// solved cases for Fold changes of MICs follow
COc1cccc2c1C(=O)c1c(O)c3c(c(O)c1C2=O)C[C@@](O)(C(=O)CO)C[C@@H]3O[C@H]1C[C@H](N)[C@H](O)[C@H](C)O1 [doxorubicin] ... 1
Nc1ccc(S(=O)(=O)Nc2nccs2)cc1 [Sulfathiazole] ... 2
CN[C@H](CC(C)C)C(=O)N[C@H]1C(=O)N[C@@H](CC(N)=O)C(=O)N[C@H]2C(=O)N[C@H]3C(=O)N[C@H](C(=O)N[C@H](C(=O)O)c4cc(O)cc(O)c4-c4cc3ccc4O)[C@H](O)c3ccc(c(Cl)c3)Oc3cc2cc(c3O[C@@H]2O[C@H](CO)[C@@H](O)[C@H](O)[C@H]2O[C@H]2C[C@](C)(N)[C@H](O)[C@H](C)O2)Oc2ccc(cc2Cl)[C@H]1O [vancomycin] ... 1
C[C@@H]1O[C@@H]1P(=O)(O)O [fosfomycin] ... 2

What value of measured Fold changes of MICs is listed for N#CC(C#N)=NNc1ccc(-n2ccc(C(F)(F)F)n2)cc1 [compound 8] ? 1

Return reported Fold changes of MICs; argument: O=c1oc(-c2ccccc2Cl)nn1-c1ccc(C(F)(F)F)cn1 [compound 5] 16

What value of Fold changes of MICs has been recorded for this entry: C=C1CCO[C@]2([C@@H](O)[C@@](C)(O)CO)NC(=O)[C@@]1(O)NC2=O [Bicyclomycin] 1

Look up Fold changes of MICs: COc1cccc2c1C(=O)c1c(O)c3c(c(O)c1C2=O)C[C@@](O)(C(C)=O)C[C@@H]3O[C@H]1C[C@H](N)[C@H](O)[C@H](C)O1 [daunorubicin] 2

Any idea what its Fold changes of MICs is? The molecule is N#CC(C#N)=NNc1cccc(Cl)c1 [CCCP] 2

For O=C(Nc1ccccc1C(=O)Nc1nnc(C(F)(F)F)s1)c1ccccc1Cl [compound 19] , what is its reported Fold changes of MICs? 1

Fold changes of MICs for O=[N+]([O-])c1ccc2c(c1)C(=NO)c1cc([N+](=O)[O-])ccc1-2 [compound 11] ? 16

Entry CC(=O)O[C@H]1C[C@@]2(C)[C@@H](C[C@@H](O)[C@H]3[C@@]4(C)CC[C@@H](O)[C@@H](C)[C@@H]4CC[C@@]32C)/C1=C(\CCC=C(C)C)C(=O)O [fusidic acid] has what Fold changes of MICs? 4

###

Test system: wild-type (WT) K-12-Pore
assayProcedure: microbe, parasite or virus in culture
Format: cell-based, Escherichia coli
runConditions: Table 14A; porinated; technical duplicate
quantityMeasured: Minimum inhibitory concentration, K-12 (WT)-Pore (µg/mL)
Field format: number, assumed µg/mL, no unit text.

COC(=O)c1sc(N2CCCC2)c(C#N)c1-c1cccs1 ... 160
C[n+]1c2cc(N)ccc2cc2ccc(N)cc21.[Cl-] ... 50

Test system wild-type (WT) K-12-Pore; read-out Minimum inhibitory concentration, K-12 (WT)-Pore; what value for O=C(Nc1ccccc1C(=O)Nc1nnc(C(F)(F)F)s1)c1ccccc1Cl ? 320

###

Test system: E. coli ΔtolC
assayProcedure: microbe, parasite or virus in culture
Assay type: cell-based, Escherichia coli
runConditions: Escherichia coli, 18 h, read-out: Minimum Inhibitory Concentration, ΔtolC
Each entry below carries its reported log10 of MIC.
The figures below represent log10 of MIC, where MIC is stated in µg/mL.

What does the record list as log10 of MIC for CN(C)[C@@H]1C(O)=C(C(N)=O)C(=O)[C@@]2(O)C(O)=C3C(=O)c4c(O)cccc4[C@@](C)(O)[C@H]3C[C@@H]12 ? -0.41

# get_value(readout='log10 of MIC', item= CO[C@@H]1[C@@H](OC(N)=O)[C@@H](O)[C@H](Oc2ccc3c(O)c(NC(=O)c4ccc(O)c(CC=C(C)C)c4)c(=O)oc3c2C)OC1(C)C ) -0.11

log10 of MIC for [H]/N=C(/N)N[C@H]1[C@H](O)[C@@H](O)[C@H](O[C@@H]2O[C@@H](C)[C@](O)(C=O)[C@H]2O[C@@H]2O[C@@H](CO)[C@H](O)[C@@H](O)[C@@H]2NC)[C@@H](N/C(N)=N\[H])[C@@H]1O ? 0.49

Given the compound COc1ccc(C[C@H](N)C(=O)N[C@H]2[C@@H](O)[C@H](n3cnc4c(N(C)C)ncnc43)O[C@@H]2CO)cc1 , what is its reported log10 of MIC? 0.49

I'd like to know its log10 of MIC. The compound in question is C[C@@H]1O[C@@H]1P(=O)(O)O 0.80

Looking for the measured log10 of MIC of NC[C@H]1O[C@H](O[C@H]2[C@H](O)[C@@H](O[C@H]3O[C@H](CO)[C@@H](O)[C@H](N)[C@H]3O)[C@H](N)C[C@@H]2N)[C@H](O)[C@@H](O)[C@@H]1O , can you help? 0.19

# input compound: COc1cccc2c1C(=O)c1c(O)c3c(c(O)c1C2=O)C[C@@](O)(C(=O)CO)C[C@@H]3O[C@H]1C[C@H](N)[C@H](O)[C@H](C)O1 ; wanted: its log10 of MIC 0.19

Endpoint output: log10 of MIC of CCn1cc(C(=O)O)c(=O)c2cc(F)c(N3CCNCC3)cc21 . Value? -1.70

Which log10 of MIC value is on record for CC1(C)S[C@@H]2[C@H](NC(=O)[C@H](N)c3ccccc3)C(=O)N2[C@H]1C(=O)O ? 1.40

// query log10 of MIC value for entry CC[n+]1c(-c2ccccc2)c2cc(N)ccc2c2ccc(N)cc21 [ethidium bromide] 0.49

Name the reported log10 of MIC value associated with the compound CC(=O)NC[C@H]1CN(c2ccc(N3CCOCC3)c(F)c2)C(=O)O1 0.89

log10 of MIC for Cc1onc(-c2ccccc2)c1C(=O)N[C@@H]1C(=O)N2[C@@H]1SC(C)(C)[C@@H]2C(=O)O ? -0.20

log10 of MIC for CN[C@H](CC(C)C)C(=O)N[C@H]1C(=O)N[C@@H](CC(N)=O)C(=O)N[C@H]2C(=O)N[C@H]3C(=O)N[C@H](C(=O)N[C@H](C(=O)O)c4cc(O)cc(O)c4-c4cc3ccc4O)[C@H](O)c3ccc(c(Cl)c3)Oc3cc2cc(c3O[C@@H]2O[C@H](CO)[C@@H](O)[C@H](O)[C@H]2O[C@H]2C[C@](C)(N)[C@H](O)[C@H](C)O2)Oc2ccc(cc2Cl)[C@H]1O ? 2.30

Which log10 of MIC is reported for this compound? Nc1ccc(S(=O)(=O)Nc2nccs2)cc1 0.70

Data request, read-out log10 of MIC, for O=C(O)c1cn(C2CC2)c2cc(N3CCNCC3)c(F)cc2c1=O -2.30

May I ask what log10 of MIC has been recorded for NCCCNCCCCNCCCN ? 3.30
